Target: T1, Human IL-23 (human, UniProt Q9NPF7 20-189; P29460 23-328)
T1 construct: Heterodimer of p40 and p19; For the crystal it was secreted from insect cells from a bi-cistronic construct; also called interleukin 23; human recombinant IL-23
T1 sequence (looked up) 1: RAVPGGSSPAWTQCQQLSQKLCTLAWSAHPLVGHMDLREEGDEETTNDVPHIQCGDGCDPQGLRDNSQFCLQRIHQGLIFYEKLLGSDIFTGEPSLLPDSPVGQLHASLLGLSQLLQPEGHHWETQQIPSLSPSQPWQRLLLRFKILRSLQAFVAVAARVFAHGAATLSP
T1 sequence (looked up) 2: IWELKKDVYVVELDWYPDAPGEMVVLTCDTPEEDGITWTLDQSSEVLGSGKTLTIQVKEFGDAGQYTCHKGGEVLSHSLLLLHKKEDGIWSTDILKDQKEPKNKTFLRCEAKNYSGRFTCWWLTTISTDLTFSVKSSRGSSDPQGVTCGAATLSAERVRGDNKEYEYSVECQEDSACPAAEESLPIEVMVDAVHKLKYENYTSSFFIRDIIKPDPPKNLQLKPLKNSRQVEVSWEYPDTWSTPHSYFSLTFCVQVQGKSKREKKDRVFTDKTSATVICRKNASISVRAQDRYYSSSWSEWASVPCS
Test: competitive ELISA, ratio of IC50 against parent 1454B08
Answer each item with its documented Activity (parent/mutant).
The response must contain the number and no unit.

Input: Answer with the recorded Activity (parent/mutant) of 1454B08 T35→E (designed binder, Point variant of 1454B08) MGVSDVPRDLEVVAATPTSLLISWEHDYPYRRYYRIEYGETGGNSPVQEFTVPKDVDTATISGLKPGVDYTITVYAVTSSYKYDMQYSPISINYRTEIDKPSQHHHHHH only.
Output: 1.7

Input: Answer with the recorded Activity (parent/mutant) of 1454B08 V75→Y (designed binder, Point variant of 1454B08) MGVSDVPRDLEVVAATPTSLLISWEHDYPYRRYYRITYGETGGNSPVQEFTVPKDVDTATISGLKPGVDYTITVYAYTSSYKYDMQYSPISINYRTEIDKPSQHHHHHH only.
Output: 0.4

Input: Answer with the recorded Activity (parent/mutant) of 1454B08 T35→Q (designed binder, Point variant of 1454B08) MGVSDVPRDLEVVAATPTSLLISWEHDYPYRRYYRIQYGETGGNSPVQEFTVPKDVDTATISGLKPGVDYTITVYAVTSSYKYDMQYSPISINYRTEIDKPSQHHHHHH only.
Output: 1

Input: Answer with the recorded Activity (parent/mutant) of 1454B08 V45→E (designed binder, Point variant of 1454B08) MGVSDVPRDLEVVAATPTSLLISWEHDYPYRRYYRITYGETGGNSPEQEFTVPKDVDTATISGLKPGVDYTITVYAVTSSYKYDMQYSPISINYRTEIDKPSQHHHHHH only.
Output: 1.9

Input: Answer with the recorded Activity (parent/mutant) of 1454B08 Y81→A (designed binder, Point variant of 1454B08) MGVSDVPRDLEVVAATPTSLLISWEHDYPYRRYYRITYGETGGNSPVQEFTVPKDVDTATISGLKPGVDYTITVYAVTSSYKADMQYSPISINYRTEIDKPSQHHHHHH only.
Output: 0.03

Input: Answer with the recorded Activity (parent/mutant) of 1454B08 V75→Q (designed binder, Point variant of 1454B08) MGVSDVPRDLEVVAATPTSLLISWEHDYPYRRYYRITYGETGGNSPVQEFTVPKDVDTATISGLKPGVDYTITVYAQTSSYKYDMQYSPISINYRTEIDKPSQHHHHHH only.
Output: 0.4

Input: Answer with the recorded Activity (parent/mutant) of Anti-IL-23 Adnectin 1454B08 (designed binder, 10Fn3-based Adnectin expressed in E. coli followed by a HIS6 tag; Fn3 domain is positions 3-96 of the entry; also called Parent) MGVSDVPRDLEVVAATPTSLLISWEHDYPYRRYYRITYGETGGNSPVQEFTVPKDVDTATISGLKPGVDYTITVYAVTSSYKYDMQYSPISINYRTEIDKPSQHHHHHH only.
Output: 1

Input: Answer with the recorded Activity (parent/mutant) of 1454B08 V45→D (designed binder, Point variant of 1454B08) MGVSDVPRDLEVVAATPTSLLISWEHDYPYRRYYRITYGETGGNSPDQEFTVPKDVDTATISGLKPGVDYTITVYAVTSSYKYDMQYSPISINYRTEIDKPSQHHHHHH only.
Output: 1.2
